These measurements were taken from ChEMBL document CHEMBL4610122.

IC50 listing for selected compounds.
- TESTED_TARGET: Leucine-rich repeat serine/threonine-protein kinase 2 (Homo sapiens)
- Sequence (Q5S007 whole entry, the tested form may be a part): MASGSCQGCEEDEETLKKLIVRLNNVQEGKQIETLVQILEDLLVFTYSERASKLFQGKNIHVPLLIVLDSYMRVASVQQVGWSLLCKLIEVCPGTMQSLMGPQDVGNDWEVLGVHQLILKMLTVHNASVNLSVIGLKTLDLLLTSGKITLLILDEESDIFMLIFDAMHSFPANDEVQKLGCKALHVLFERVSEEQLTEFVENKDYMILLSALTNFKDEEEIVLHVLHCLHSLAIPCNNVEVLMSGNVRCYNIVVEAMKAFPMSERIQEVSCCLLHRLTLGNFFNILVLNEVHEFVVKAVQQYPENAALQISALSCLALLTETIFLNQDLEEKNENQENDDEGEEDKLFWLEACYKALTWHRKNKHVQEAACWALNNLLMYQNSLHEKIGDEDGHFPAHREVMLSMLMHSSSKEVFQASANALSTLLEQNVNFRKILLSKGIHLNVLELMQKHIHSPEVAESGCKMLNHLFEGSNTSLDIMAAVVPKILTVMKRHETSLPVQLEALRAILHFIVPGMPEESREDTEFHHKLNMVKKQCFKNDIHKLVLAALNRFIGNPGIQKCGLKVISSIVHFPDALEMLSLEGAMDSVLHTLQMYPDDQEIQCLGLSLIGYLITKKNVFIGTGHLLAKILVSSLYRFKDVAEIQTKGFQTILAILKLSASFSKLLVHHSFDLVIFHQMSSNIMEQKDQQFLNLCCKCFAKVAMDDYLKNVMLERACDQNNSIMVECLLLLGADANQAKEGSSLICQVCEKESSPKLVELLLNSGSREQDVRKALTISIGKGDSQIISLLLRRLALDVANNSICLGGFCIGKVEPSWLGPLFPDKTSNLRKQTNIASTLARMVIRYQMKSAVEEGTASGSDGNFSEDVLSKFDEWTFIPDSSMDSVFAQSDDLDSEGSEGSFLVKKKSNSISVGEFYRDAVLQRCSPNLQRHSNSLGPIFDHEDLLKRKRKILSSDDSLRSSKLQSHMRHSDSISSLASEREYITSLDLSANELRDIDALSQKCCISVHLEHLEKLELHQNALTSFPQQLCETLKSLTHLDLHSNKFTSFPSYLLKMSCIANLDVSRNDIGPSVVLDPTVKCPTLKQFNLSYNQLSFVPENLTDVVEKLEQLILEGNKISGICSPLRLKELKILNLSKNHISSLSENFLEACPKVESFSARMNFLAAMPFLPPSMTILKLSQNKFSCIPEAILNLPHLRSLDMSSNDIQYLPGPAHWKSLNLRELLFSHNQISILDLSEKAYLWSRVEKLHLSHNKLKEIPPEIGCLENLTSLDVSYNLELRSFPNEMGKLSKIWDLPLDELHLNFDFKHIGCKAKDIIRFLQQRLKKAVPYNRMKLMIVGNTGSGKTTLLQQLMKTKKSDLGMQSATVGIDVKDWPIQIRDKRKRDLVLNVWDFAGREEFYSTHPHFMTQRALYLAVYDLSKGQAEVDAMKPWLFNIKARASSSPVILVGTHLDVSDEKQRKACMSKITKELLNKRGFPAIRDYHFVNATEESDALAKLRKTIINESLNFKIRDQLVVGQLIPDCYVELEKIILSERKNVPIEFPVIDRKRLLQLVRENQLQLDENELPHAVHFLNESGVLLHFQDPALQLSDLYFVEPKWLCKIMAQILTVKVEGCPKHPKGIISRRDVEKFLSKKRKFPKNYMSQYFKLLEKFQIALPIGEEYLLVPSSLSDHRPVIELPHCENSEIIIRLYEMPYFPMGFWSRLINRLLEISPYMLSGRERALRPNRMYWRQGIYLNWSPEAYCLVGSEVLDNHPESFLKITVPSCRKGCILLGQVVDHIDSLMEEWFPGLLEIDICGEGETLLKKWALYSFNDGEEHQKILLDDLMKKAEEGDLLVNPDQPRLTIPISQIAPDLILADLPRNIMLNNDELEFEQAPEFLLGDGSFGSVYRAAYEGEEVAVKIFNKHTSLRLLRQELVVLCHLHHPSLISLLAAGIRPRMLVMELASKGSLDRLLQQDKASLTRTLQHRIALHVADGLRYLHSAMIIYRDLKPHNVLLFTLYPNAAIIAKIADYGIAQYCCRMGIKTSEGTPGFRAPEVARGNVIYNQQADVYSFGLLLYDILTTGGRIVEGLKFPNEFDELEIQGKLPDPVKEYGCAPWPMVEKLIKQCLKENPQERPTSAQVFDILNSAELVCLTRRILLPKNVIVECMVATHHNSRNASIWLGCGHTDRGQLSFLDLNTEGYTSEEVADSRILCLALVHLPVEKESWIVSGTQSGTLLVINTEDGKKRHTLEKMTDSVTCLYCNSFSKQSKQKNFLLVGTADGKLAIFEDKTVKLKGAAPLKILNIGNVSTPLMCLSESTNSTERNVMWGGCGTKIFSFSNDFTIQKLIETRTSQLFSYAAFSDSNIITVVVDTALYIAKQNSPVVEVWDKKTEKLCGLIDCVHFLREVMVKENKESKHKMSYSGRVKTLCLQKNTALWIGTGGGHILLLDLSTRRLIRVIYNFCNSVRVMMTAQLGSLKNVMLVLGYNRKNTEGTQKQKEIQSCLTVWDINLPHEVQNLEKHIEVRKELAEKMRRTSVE
- PROTOCOL: Inhibition of recombinant human GST-tagged LRRK2 catalytic domain (970 to 2527 residues) expressed in baculovirus expression system using LRRKtide as substrate measured after 1 hr by Alexa fluor-647 ADP tracer-based ADAPTA assay
Report only the number, with the unit nM understood.

COMPOUND: COc1cc(N2CCN(C)CC2)ccc1Nc1ncc2c(n1)N(C)c1ccccc1C(=O)N2CC(F)(F)F
UNIT: nM
MEASURED: 7000
//
COMPOUND: COc1cc(C(=O)NC2CCN(C)CC2)ccc1Nc1ncc2c(n1)N(C)c1ccccc1C(=O)N2C(C)C
UNIT: nM
MEASURED: 331
//
COMPOUND: COc1cc(NS(C)(=O)=O)ccc1Nc1ncc2c(n1)N(C)c1ccccc1C(=O)N2C(C)C
UNIT: nM
MEASURED: 683
//
COMPOUND: COc1cc(NS(C)(=O)=O)ccc1Nc1ncc2c(n1)N(C)c1ccccc1C(=O)N2CC(F)(F)F
UNIT: nM
MEASURED: 8890
//
COMPOUND: CCN1C(=O)c2ccccc2N(C)c2nc(Nc3ccc(NS(C)(=O)=O)cc3OC)ncc21
UNIT: nM
MEASURED: 23

Q. Output IC50 of CC(C)Oc1cc(N2CCC(O)CC2)ccc1Nc1ncc2c(n1)N(C)c1ccccc1C(=O)N2C
A. 160

Q. In one line, give reported IC50 of the entry CCC(C)N1c2ccccc2C(=O)N(C)c2cnc(Nc3ccc(N4CCN(C)CC4)cc3OC)nc21 (centres undefined) .
A. 743

Q. Let me know recorded IC50 for COc1cc(N2CCN(C)CC2)ccc1Nc1ncc2c(n1)N(C(C)C)c1ccccc1C(=O)N2C , thanks.
A. 289

###

- TESTED_TARGET: Serine/threonine-protein kinase DCLK1 (Homo sapiens, UniProt O15075)
- Sequence (O15075 whole entry, the tested form may be a part): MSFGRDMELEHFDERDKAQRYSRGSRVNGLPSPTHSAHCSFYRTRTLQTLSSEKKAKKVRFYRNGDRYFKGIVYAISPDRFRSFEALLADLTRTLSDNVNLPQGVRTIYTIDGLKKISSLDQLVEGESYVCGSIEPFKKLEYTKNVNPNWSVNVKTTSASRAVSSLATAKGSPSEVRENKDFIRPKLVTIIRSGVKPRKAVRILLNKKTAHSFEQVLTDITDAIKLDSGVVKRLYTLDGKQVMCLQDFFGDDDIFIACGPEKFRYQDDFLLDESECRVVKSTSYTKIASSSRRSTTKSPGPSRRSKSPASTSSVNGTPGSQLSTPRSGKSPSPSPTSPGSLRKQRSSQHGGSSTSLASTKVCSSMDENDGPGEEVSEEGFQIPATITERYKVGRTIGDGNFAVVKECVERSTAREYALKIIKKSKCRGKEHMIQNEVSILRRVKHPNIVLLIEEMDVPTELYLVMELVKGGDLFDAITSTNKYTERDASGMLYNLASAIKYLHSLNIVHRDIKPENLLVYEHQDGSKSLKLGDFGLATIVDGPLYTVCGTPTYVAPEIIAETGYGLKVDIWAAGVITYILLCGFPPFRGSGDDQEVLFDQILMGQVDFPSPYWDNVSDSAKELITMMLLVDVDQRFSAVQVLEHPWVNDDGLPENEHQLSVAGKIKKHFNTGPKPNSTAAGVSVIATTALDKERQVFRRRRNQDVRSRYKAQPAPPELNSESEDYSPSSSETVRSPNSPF
- PROTOCOL: Inhibition of recombinant human N-terminal His6-tagged DCLK1 (G351 to H689 residues) expressed in Escherichia coli BL21 DE3 using 5-FAM-KKLRRTLSVA-COOH as substrate measured after 2 hrs by mobility shift assay
Measured log10 of IC50 accompanies every entry in the list below.
Annotation: log10 of IC50, nM basis.

// below: answered compounds
COMPOUND: CN1C(=O)c2ccccc2N(C)c2nc(Nc3cccc(S(N)(=O)=O)c3)ncc21
log10 of IC50: 2.05
//
COMPOUND: CCOc1cc(C(=O)N2CCC(N3CCN(C)CC3)CC2)ccc1Nc1ncc2c(n1)N(C1CCCC1)c1ccccc1C(=O)N2C
log10 of IC50: 1.34
//
COMPOUND: COc1cc(C(=O)NC2CCN(C)CC2)ccc1Nc1ncc2c(n1)N(C)c1ccccc1C(=O)N2C(C)C
log10 of IC50: 2.10

Q. Give log10 of IC50 for CCN1C(=O)c2ccccc2N(C)c2nc(Nc3ccc(N4CCN(C)CC4)cc3OC)ncc21
A. 0.48

Q. Return log10 of IC50 (reported value) for this compound: COc1cc(C(=O)NC2CCN(C)CC2)ccc1Nc1ncc2c(n1)N(C)c1ccccc1C(=O)N2CC(F)(F)F
A. 1.00

Q. Specify log10 of IC50 for COc1cc(N2CCN(C)CC2)ccc1Nc1ncc2c(n1)N(Cc1ccccc1)c1ccccc1C(=O)N2C and stop.
A. 0.60

Q. For the compound CN1C(=O)c2ccccc2N(C)c2nc(Nc3ccc(NS(C)(=O)=O)cc3)ncc21 , give its reported log10 of IC50.
A. 0.30

Q. Return log10 of IC50 for the following compound: COc1cc(N2CCOCC2)ccc1Nc1ncc2c(n1)N(C)c1ccccc1C(=O)N2C
A. 1.04

Q. Hello, please tell me recorded log10 of IC50 for this one: CCC(C)N1c2ccccc2C(=O)N(C)c2cnc(Nc3ccc(N4CCN(C)CC4)cc3OC)nc21 (stereo not drawn)
A. 1.51
